# assay_system: Beta-galactosidase (Escherichia coli) (UniProt Q8VNN2)
# Sequence (Q8VNN2 whole entry, looked up): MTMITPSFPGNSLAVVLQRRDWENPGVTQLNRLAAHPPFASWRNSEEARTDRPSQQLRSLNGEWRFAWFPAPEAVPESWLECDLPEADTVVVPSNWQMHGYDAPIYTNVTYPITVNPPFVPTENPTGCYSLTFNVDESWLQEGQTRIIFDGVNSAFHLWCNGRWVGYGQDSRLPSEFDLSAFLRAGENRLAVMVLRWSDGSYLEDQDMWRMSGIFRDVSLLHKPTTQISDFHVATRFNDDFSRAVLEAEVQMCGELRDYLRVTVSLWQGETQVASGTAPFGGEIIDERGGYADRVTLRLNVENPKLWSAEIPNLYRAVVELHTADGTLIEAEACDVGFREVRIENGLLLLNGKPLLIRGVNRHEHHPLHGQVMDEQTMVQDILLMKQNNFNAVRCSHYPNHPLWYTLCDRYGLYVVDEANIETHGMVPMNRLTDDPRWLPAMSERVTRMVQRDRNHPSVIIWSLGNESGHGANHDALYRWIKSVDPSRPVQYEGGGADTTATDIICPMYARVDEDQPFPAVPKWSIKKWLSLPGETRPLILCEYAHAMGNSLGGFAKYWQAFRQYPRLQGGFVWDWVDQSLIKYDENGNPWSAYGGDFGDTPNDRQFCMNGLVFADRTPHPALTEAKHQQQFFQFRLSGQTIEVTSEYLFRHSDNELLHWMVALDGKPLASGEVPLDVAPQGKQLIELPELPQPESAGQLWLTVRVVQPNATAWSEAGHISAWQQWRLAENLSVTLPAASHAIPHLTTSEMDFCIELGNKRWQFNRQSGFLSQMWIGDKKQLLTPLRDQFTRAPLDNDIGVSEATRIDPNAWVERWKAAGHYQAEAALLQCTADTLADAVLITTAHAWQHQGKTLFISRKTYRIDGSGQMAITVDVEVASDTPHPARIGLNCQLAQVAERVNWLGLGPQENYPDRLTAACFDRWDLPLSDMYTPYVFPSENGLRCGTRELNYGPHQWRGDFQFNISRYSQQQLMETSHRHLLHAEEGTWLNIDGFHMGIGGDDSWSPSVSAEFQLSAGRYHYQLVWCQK
# experimental_details: potency against CXCR6 with APJ panel – cell-based, beta-arrestin, DiscoveRx, uHTS hits, dose response (AID 624129)
# conditions_used: CXCR6 beta-arrestin (DiscoveRx) antagonist cell assay, b-galactosidase, dose range 1
The source made the active and inactive calls. The rule behind the calls is not given here.
Mark one answer only. Choices: class 1 = active, class 0 = inactive

- molecule: "Cc1ccc2c(Cl)cc(Cl)c(O)c2n1"
  answer_label: "class 0"
- molecule: "CCOc1ccc(NCC(=O)c2ccc(C)cc2)cc1"
  answer_label: "class 0"
- molecule: "CCc1cc2c(=O)[nH]c(-c3ccccn3)nc2s1"
  answer_label: "class 0"
- molecule: "C=C1CC(COc2cc(=O)oc3ccccc23)(c2ccccc2)OC1=O (stereo not drawn)"
  answer_label: "class 0"
- molecule: "CCC1CCCCN1S(=O)(=O)c1ccc(NC(=O)c2nc(S(C)(=O)=O)ncc2Cl)cc1 (stereo not drawn)"
  answer_label: "class 0"

Moving on to another molecule below.
q: Which outcome was assigned to `O=C1c2ccccc2C(=O)N1OS(=O)(=O)c1ccc(F)cc1` in this test?
a: class 0

The measurements presented in this section are drawn from PubChem BioAssay AID624129.
